Assay: Metabolic stability in CD1 mouse liver microsomes assessed as compound remaining after 1 hr
Format: ADME
Conditions: read-out: Stability
Consider the following molecules; for each one, report its remaining at 1 h.
Number in %, nothing else.

Dear colleague, please send me the reported remaining at 1 h for O=[N+]([O-])c1cn2c(n1)OC[C@H](COc1ccc(OC(F)(F)F)cc1)C2 when you can.
72

Give reported remaining at 1 h value for COc1cc(-c2ccc(OC(F)(F)F)cc2)ccc1CO[C@@H]1COc2nc([N+](=O)[O-])cn2C1
87

Report measured remaining at 1 h; entry is O=[N+]([O-])c1cn2c(n1)OC[C@@H](COc1ccc(OC(F)(F)F)cc1)C2
80

State its remaining at 1 h: O=[N+]([O-])c1cn2c(n1)OC[C@@H](OCc1c(F)cc(-c3ccc(OC(F)(F)F)cc3)cc1F)C2
94

Name the recorded remaining at 1 h of the molecule listed here: O=[N+]([O-])c1cn2c(n1)OC[C@@H](OCc1ccc(-c3ccc(C(F)(F)F)nc3)cc1F)C2
78

Return value of remaining at 1 h for input O=[N+]([O-])c1cn2c(n1)OC[C@@H](OCc1c(Cl)cc(-c3ccc(OC(F)(F)F)cc3)cc1Cl)C2 , no commentary.
93

Give reported remaining at 1 h value for O=[N+]([O-])c1cn2c(n1)OC[C@@H](OCc1ccc(-c3ccc(OC(F)(F)F)cc3)cc1C(F)(F)F)C2
96

Please look at this molecule and report its remaining at 1 h: O=[N+]([O-])c1cn2c(n1)OC[C@@H](OCc1ccc(-c3ccc(OC(F)(F)F)cc3)cc1F)C2
85

====

Please provide measured remaining at 1 h for the entries that follow.
Assay: Metabolic stability in CD1 mouse liver microsomes assessed as compound remaining after 1 hr
Type: ADME
Details: read-out: Stability
Give the quantity in %, number only.

Fill in reported remaining at 1 h for this entry: O=[N+]([O-])c1cn2c(n1)OC[C@@H](OCc1ccc(-c3ccc(OC(F)(F)F)cc3)cc1OC(F)(F)F)C2
100

Please indicate remaining at 1 h recorded for O=[N+]([O-])c1cn2c(n1)OC[C@@H](OCc1ccc(-c3ccc(OC(F)(F)F)cc3)cc1Cl)C2
100

Using the record for N#Cc1cc(-c2ccc(OC(F)(F)F)cc2)ccc1CO[C@@H]1COc2nc([N+](=O)[O-])cn2C1 , state its measured remaining at 1 h.
88

Complete the entry with remaining at 1 h for O=[N+]([O-])c1cn2c(n1)OCC(COc1ccc(-c3ccc(OC(F)(F)F)cc3)cc1)C2 (stereo unspecified)
93

Determine its reported remaining at 1 h: O=[N+]([O-])c1cn2c(n1)OC[C@@H](OCc1ccc(-c3ccc(C(F)(F)F)cn3)cc1F)C2
77

Using the record for O=[N+]([O-])c1cn2c(n1)OCC(COCc1ccc(OC(F)(F)F)cc1)C2 (stereo unspecified) , state its measured remaining at 1 h.
41

====

System: Vero
Test: Cytotoxicity against African green monkey Vero cells after 72 hrs
Format: cell-based
Conditions: Chlorocebus sabaeus
pIC50: −log10 of the molar value.
Hi there, I'd appreciate the recorded pIC50 for every entry that follows.

Could you please provide reported pIC50 for O=[N+]([O-])c1cn2c(n1)OCC(COCc1ccc(-c3ccc(C(F)(F)F)cc3)cc1)C2 (centres undefined) ? Thanks!
4.42

For the compound O=[N+]([O-])c1cn2c(n1)OCC(COCc1ccc(-c3ccc(F)cc3)cc1)C2 (centres undefined) , give its reported pIC50.
4.62

Look up pIC50 of O=[N+]([O-])c1cn2c(n1)OC[C@@H](COc1ccc(OC(F)(F)F)cc1)C2 and report it.
< 3.89

Please give measured pIC50 of the following entry: N#Cc1cc(-c2ccc(OC(F)(F)F)cc2)ccc1CO[C@@H]1COc2nc([N+](=O)[O-])cn2C1
< 3.89

Specify measured pIC50 for O=[N+]([O-])c1cn2c(n1)OC[C@H](COc1ccc(OC(F)(F)F)cc1)C2 .
< 3.89

Note down pIC50 recorded for O=[N+]([O-])c1cn2c(n1)OCC(COc1ccc(-c3ccc(F)cc3)cn1)C2 (centres undefined)
< 3.89

Provide pIC50 value for the following compound: O=[N+]([O-])c1cn2c(n1)OCC(COc1ccc(-c3ccc(C(F)(F)F)cc3)cn1)C2 (centres undefined)
< 3.89

Using the record for O=[N+]([O-])c1cn2c(n1)OC[C@@H](OCc1ccc(-c3ccc(OC(F)(F)F)cc3)cc1C(F)(F)F)C2 , state its measured pIC50.
< 3.89

Note down pIC50 recorded for O=[N+]([O-])c1cn2c(n1)OCC(COCc1ccc(-c3ccc(OC(F)(F)F)cc3)cc1)C2 (centres undefined)
< 3.89

====

Assay: Cmax in CD1 mouse lung at 40 mg/kg, po
Format: ADME, organism-based
Design: dose 40 mg/kg, route oral
quantity: Cmax (µg/mL)
Record the value in µg/mL, omitting the unit from your answer.

Check the records and state Cmax for O=[N+]([O-])c1cn2c(n1)OC[C@@H](OCc1ccc(-c3ccc(OC(F)(F)F)cc3)cc1F)C2
12.1

====

Would you kindly list IC50 for each of these compounds?
System: Vero
Experiment: Cytotoxicity against African green monkey Vero cells after 72 hrs
Type: cell-based
Conditions: Chlorocebus sabaeus

Find the measured IC50 of O=[N+]([O-])c1cn2c(n1)OCC(COc1ccc(-c3ccc(C(F)(F)F)cc3)nc1)C2 (centres undefined) and report it.
> 128 µM

Determine its reported IC50: COc1cc(-c2ccc(OC(F)(F)F)cc2)ccc1CO[C@@H]1COc2nc([N+](=O)[O-])cn2C1
> 128 µM

// fetch IC50 given entry O=[N+]([O-])c1cn2c(n1)OC[C@@H](OCc1ccc(-c3ccc(OC(F)(F)F)cc3)cc1F)C2
> 128 µM

Given O=[N+]([O-])c1cn2c(n1)OC[C@@H](OCc1c(F)cc(-c3ccc(C(F)(F)F)nc3)cc1F)C2 , respond with its IC50.
43 µM

====

Experiment: Ratio of AUC (0 to infinity) in CD1 mouse lung to AUC (0 to infinity) in CD1 mouse plasma at 40 mg/kg, po
Format: ADME, organism-based
Conditions: read-out: Ratio AUC
quantity: Kp
Please respond with just the number, no unit label.

Return value of Kp for input O=[N+]([O-])c1cn2c(n1)OC[C@@H](OCc1ccc(-c3ccc(OC(F)(F)F)cc3)cc1F)C2 , no commentary.
2.7

====

Assay: Metabolic stability in human liver microsomes assessed as compound remaining after 1 hr
Type: ADME
Conditions: read-out: Stability
quantity: remaining at 1 h (%)
Give the number; % is assumed, so skip it.

Look up and report measured remaining at 1 h for this entry: O=[N+]([O-])c1cn2c(n1)OCC(COCc1ccc(OC(F)(F)F)cc1)C2 (centres undefined)
71

Check the records and state remaining at 1 h for O=[N+]([O-])c1cn2c(n1)OC[C@@H](OCc1ccc(-c3ccc(OC(F)(F)F)cc3)cc1OC(F)(F)F)C2
97

Return remaining at 1 h (reported value) for this molecule: O=[N+]([O-])c1cn2c(n1)OC[C@@H](OCc1ccc(-c3ccc(OC(F)(F)F)cc3)cc1F)C2
93

Could you please provide reported remaining at 1 h for COc1cc(-c2ccc(OC(F)(F)F)cc2)ccc1CO[C@@H]1COc2nc([N+](=O)[O-])cn2C1 ? Thanks!
88

====

Test system: Vero
Assay: Cytotoxicity against African green monkey Vero cells after 72 hrs
Type: cell-based
Settings: Chlorocebus sabaeus
pIC50: −log10 of the molar value.
Provide the reported pIC50 of each item.

Entry O=[N+]([O-])c1cn2c(n1)OCC(COc1ccc(-c3ccc(F)cc3)nc1)C2 (stereo unspecified) needs its pIC50 filled in; supply it.
< 3.89

Supply reported pIC50 belonging to this compound: O=[N+]([O-])c1cn2c(n1)OCC(COc1ccc(-c3ccc(F)cc3)cc1)C2 (stereo unspecified)
< 3.89

Provide only the value of recorded pIC50 for O=[N+]([O-])c1cn2c(n1)OC[C@@H](OCc1ccc(-c3ccc(OC(F)(F)F)cc3)c(Cl)c1)C2
< 3.89

Indicate the recorded pIC50 value for this compound: O=[N+]([O-])c1cn2c(n1)OCC(COc1ccc(OC(F)(F)F)cc1)C2 (stereo unspecified)
< 3.89

Output pIC50 of O=[N+]([O-])c1cn2c(n1)OC[C@@H](OCc1ccc(-c3ccc(OC(F)(F)F)cc3)cc1Cl)C2
< 3.89

Dear colleague, please send me the reported pIC50 for O=[N+]([O-])c1cn2c(n1)OC[C@@H](OCc1ccc(-c3ccc(C(F)(F)F)cn3)cc1F)C2 when you can.
< 3.89

====

Record form. Attribute: remaining at 1 h. Fill in for each entry.
Assay: Metabolic stability in human liver microsomes assessed as compound remaining after 1 hr
Type: ADME
Conditions: read-out: Stability

Given O=[N+]([O-])c1cn2c(n1)OC[C@@H](OCc1c(Cl)cc(-c3ccc(OC(F)(F)F)cc3)cc1Cl)C2 , respond with its remaining at 1 h.
98%

Complete the entry with remaining at 1 h for O=[N+]([O-])c1cn2c(n1)OC[C@@H](OCc1ccc(-c3ccc(C(F)(F)F)cn3)cc1F)C2
90%

Indicate the recorded remaining at 1 h value for this compound: O=[N+]([O-])c1cn2c(n1)OC[C@@H](OCc1ccc(OC(F)(F)F)cc1)C2 [PRETOMANID]
82%

Fill in remaining at 1 h for record O=[N+]([O-])c1cn2c(n1)OC[C@@H](OCc1ccc(-c3ccc(OC(F)(F)F)cc3)cc1C(F)(F)F)C2
100%
